Would you kindly list TGI for each of these compounds?
- Tested on: NCI-H460 lung
- methodNotes: NCI tumour cell line growth inhibition, 48 h

• O=C(O)C1CCCN(CCc2c[nH]c3ccccc23)C1 (stereo unspecified) = > 100 µM
• O=C(CCc1cc(-c2ccccc2)nc(=S)[nH]1)N(Cc1ccccc1)Cc1ccccc1 = > 100 µM
• C/C(CC(=O)Nc1cc(C)ccc1C)=N\NC(=O)c1ccncc1 = > 100 µM
• CCOC(=O)C1(Cc2ccccc2)C=CN(C(=O)c2ccccc2)C=C1 = > 100 µM
• C/C(O)=C(\N=O)C(=O)Nc1ccc(Cl)cc1Cl = > 100 µM
• C/C(Cl)=N/OC(=O)Nc1ccc(S(N)(=O)=O)c(C)c1 = > 100 µM
• O=S(=O)(SC1=NCCN1)c1ccc2ccccc2c1 = 42.8 µM
• CCCCCCCCn1ccc2cc(NC(=O)Cn3cc(CN4CCCC4)nn3)ccc21 = 3.51 µM

Quick one: give me TGI for each item below, same order please.
1. CCOC(=O)CCCNC(=O)CCCCC(=O)N(C)C
2. COc1ccc(C(=O)C#Cc2cnc(OC)nc2OC)cc1
3. O=C(N/N=C/C=C/c1ccccc1)[C@H](O)[C@@H](O)C(=O)N/N=C/C=C/c1ccccc1

Result block:
["> 100 µM", "10.8 µM", "> 100 µM"]
